- System: L1210 leukemia ip in BDF1 mice, survival T/C
- ASSAY DETAILS: NCI In Vivo Anticancer Drug Screen. Data for tumor model L1210 Leukemia (intraperitoneal) in B6D2F1 (BDF1) mice
- RECORDED CONDITIONS: endpoint: mean survival time; dose: 100.0 mg/kg/injection; schedule: Q04DX002 (ip); vehicle: saline with Tween-80; higher = longer survival
Toxic doses and inconclusive results are not listed.
Assignment: determine reported T/C for the given compounds.

Record request: T/C value, item N#CCCN(Cc1cccnc1)CN1C(=O)c2ccccc2C1=O 91 % of control

Next up: COc1cccc(NC(=S)N(CCC#N)C2CCCCC2)c1 102 % of control

Now consider CCOC(=O)c1cc2ccccc2[nH]1 . 97 % of control

Now this one: CCOC(=O)/C(=C\c1ccc(N(C)C)cc1)c1nc2ccccc2[nH]1 92 % of control

Please do the same for CSCC(O)CSC as well. 90 % of control

Next up: Cc1ccc2c(c1)Oc1ccccc1S2 96 % of control

Now try CCCCC(CCC)CCC . 103 % of control

Further, for O=C=Nc1ccccc1-c1ccccc1 ? 98 % of control

And O=[N+]([O-])c1ccc(N=Cc2ccc(Cl)cc2Cl)c(O)c1 ? 86 % of control

Would you kindly repeat that for Cc1cnc(Cl)[nH]1 (tested in a mixture with another compound) ? 100 % of control

// repeat for SCCS and report 101 % of control

Next record, please: C[CH2][Ge]1([CH2]C)[CH2]C(C)=C(C)[CH2]1 95 % of control

Same lookup for O=C(O)Cc1cccc(S(=O)(=O)F)c1 , please. 91 % of control

Another compound to check: CC(O)CN1C(=O)c2cccc3cc([N+](=O)[O-])cc(c23)C1=O (stereo unspecified) 95 % of control

Now consider O=C(c1ccc([N+](=O)[O-])cc1)c1ccc([N+](=O)[O-])cc1 and answer again. 90 % of control

Could you do the same for CNC , please? 88 % of control

###

- System: L1210 leukemia ip in BDF1 mice, survival T/C
- ASSAY DETAILS: NCI In Vivo Anticancer Drug Screen. Data for tumor model L1210 Leukemia (intraperitoneal) in B6D2F1 (BDF1) mice
- RECORDED CONDITIONS: endpoint: mean survival time; dose: 50.0 mg/kg/injection; schedule: Q04DX003 (ip); vehicle: Klucel (hydroxypropylcellulose) (HPC); higher = longer survival
Toxic doses and inconclusive results are not listed.
Hi there, I'd appreciate the recorded T/C for every entry that follows.

// lookup T/C | system=L1210 leukemia ip in BDF1 mice, survival T/C | key= Cc1nc(Cl)c2c(n1)Oc1nc(C)nc(Cl)c1C2c1ccc(Cl)cc1 97 % of control

And CCOC(=O)C1(C(=O)OCC)C(C)CC(OCC)N1C(=O)c1cc2c(cc1[N+](=O)[O-])OCO2 (stereo unspecified) ? 89 % of control

What would you report for Cc1ccc(S(=O)(=O)N=Nc2c(O)[nH]c3cc(O)c(C(=O)O)cc23)cc1 ? 103 % of control

And CCOc1ccc(/C=C/[N+](=O)[O-])cc1 ? 101 % of control

// same read-out, input: CC(=O)NC(N)=S 97 % of control

CC(C)=C1C2C=CC1C1C(=O)OC(=O)C21 (stereo unspecified) , same question. 103 % of control
